B1: Alpha-lactalbumin, P00712 (parent)
chain: MMSFVSLLLVGILFHATQAEQLTKCEVFQKLKDLKDYGGVSLPEWVCTAFHTSGYDTQAIVQNNDSTEYGLFQINNKIWCKDDQNPHSRNICNISCDKFLDDDLTDDIVCAKKILDKVGINYWLAHKALCSEKLDQWLCEKL

variants of: B1; details: Capra hircus; pH 2; 20 °C; Urea; CD; NaCl-HCl 100 mM; structure 1HFY; whole UniProt chain shown
attribute_measured: unfolding free energy (kcal/mol)

[[record]]
residue_change = "T52I"
test_value = 1.02

[[record]]
residue_change = "A49T"
test_value = 0.56

[[record]]
residue_change = "T48I"
test_value = 0.77

[[record]]
residue_change = "A49I"
test_value = 1


Source listed as FireProtDB (doi:10.1093/protein/8.11.1153).
